Where do the numbers come from? From patent US11702475B2.

Assay: Analytical size exclusion chromatography (percent monomer)
Assay type: physicochemical
Conditions: NEM-conjugated cysteine variants; SEC, Abs280 monomer region 5.5-6 minutes vs oligomer region 4-5.3 minutes
endpointName: Percent monomer (%)

{"columns": ["molecule", "measurementUnits", "observedResult"],
 "data": [
  ["T48C: cysteine variant of P54AR4-83v2 (SEQ ID NOS: 203 and 241); NEM and VC-MMAF conjugates (conjugate, NEM or vcMMAF conjugate; EGFR binding FN3 domain, NEM and VC-MMAF conjugates) MLPAPKNLVVSEVTEDSARLSWDDPWAFYESFLIQYQESEKVGEAIVLCVPGSERSYDLTGLKPGTEYTVSIYGVHNVYKDTNMRGLPLSAIFTT", "%", 90]
]}
